- Test system: MDA-MB-468
- PROTOCOL: Cytotoxicity against Homo sapiens (human) MDA-MB-468 cells assessed as growth inhibition at 10 uM after 48 hr by coulter counter analysis
- Assay type: functional
- RUN_PARAMETERS: MDA-MB-468, 48 h, read-out: GI
PROPERTY_MEASURED: inhibition of growth at 10 µM (%)
Give the quantity in %, number only.

Solved entries (count: 2):
• O=c1[nH]nnc2c1C(c1ccc(Cl)cc1)C1=C(CCCC1)N2 (stereo not given) = 13.3
• COc1ccc(C2C3=C(CCCC3)Nc3nc(-c4ccccc4)[nH]c(=O)c32)cc1OC (stereo not given) = 21.2

// moving on: another record for inhibition of growth at 10 µM
What value of inhibition of growth at 10 µM has been reported for the following compound? COc1ccc(C2C3=C(CCCC3)Nc3[nH]c(=S)nc(NC(N)=S)c32)cc1OC (stereo not given)
14.2
